Assay: NCI Yeast Anticancer Drug Screen. Data for the mec2-1 strain (AID 157)
Conditions: S. cerevisiae mec2-1 strain, at 50.0 µM, hits give high values
The panel holds about 79,000 compounds, 15% with a hit somewhere; the sample as a whole holds those more often.
Would you kindly list growth inhibition for each of these molecules?
Numbers only, in %.

Here is how some molecules turned out for growth inhibition.
O=[N+]([O-])c1nccn1CC(O)CN1CCCCC1 (centres undefined) | -1.15
CCOC(=O)NN(C(=O)OCC)C(C(=O)C1=CCCCC1)N(NC(=O)OCC)C(=O)OCC | -1.15
CCc1c(C)[nH]c2c1C(=O)CCC2 | -4.65

# batch size: 6; output growth inhibition per entry
1. O=C(OCCCl)C1CC2C=CC1C2 (centres undefined)
2. O=[N+]([O-])c1ccc(-c2noc(-c3ccccc3)c2C2=NCCN2)cc1
3. CC(C)OP(=O)(OC(C)C)C([CH2][Sn]([CH3])([CH3])[Cl])P(=O)(OC(C)C)OC(C)C
4. Cc1ccc(S(=O)(=O)Cc2c(C)cc(C)cc2C)cc1
5. COC(=O)N/C(C)=N/OCc1ccccc1
6. NC(N)=NC(N)=NCc1ccccc1

-10.1
-6
-0.8
3.8
0.6
-2.45

# batch size: 2; output growth inhibition per entry
1. COc1ccc(NC(C)=O)c(C(O)CCNC(C)=O)c1 (centres undefined)
2. CCCCCOC(C)(OCCCCC)OCCCCC

1. -13.3
2. 13.6

# batch size: 7; output growth inhibition per entry
1. Cc1ccc2c(c1)nc(-c1ccccn1)n2CCc1ccncc1
2. Cc1[nH]c2ccccc2c1C1=CC(=O)c2ccccc2C1=O
3. O=c1n(CCO)nc2n1CCCN2
4. CSc1ccc(NC(=O)Nc2ccc(Cl)cc2C(=O)c2ccccc2)cc1
5. NC(=O)NNCc1ccccc1
6. c1ccc2c(CN3CCN(Cc4c[nH]c5ccccc45)CC3)c[nH]c2c1
7. CN(C)c1ccc(N=C(C#CC#Cc2ccccc2)c2ccccc2)cc1

[34.1, 18, 10.9, 97.8, -0.3, -8.75, -4]

Report growth inhibition for CC1(C)CCCN1C(=O)Nc1ccc([N+](=O)[O-])cc1[N+](=O)[O-] please.
-7.7
